Would you mind telling me the reported pKi of each entry?
Target: JAK1 (Homo sapiens, UniProt P23458)
Construct: made in house; host or cells: SF9 insect cells (baculovirus)
Sequence (P23458 852-1154): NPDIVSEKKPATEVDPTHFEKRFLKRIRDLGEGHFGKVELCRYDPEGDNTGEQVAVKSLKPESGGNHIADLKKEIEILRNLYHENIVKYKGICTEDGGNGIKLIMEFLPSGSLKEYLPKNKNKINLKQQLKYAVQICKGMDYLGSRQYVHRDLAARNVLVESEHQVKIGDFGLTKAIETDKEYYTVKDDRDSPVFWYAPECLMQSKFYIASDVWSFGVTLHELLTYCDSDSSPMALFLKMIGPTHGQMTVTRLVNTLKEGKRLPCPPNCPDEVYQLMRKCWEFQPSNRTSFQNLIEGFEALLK
Test: JAK1 inhibition (Table 4)
Format: biochemical
Details: read-out: JAK1 Ki
Numbers only, as −log10 of the molar value.

Below: 3 molecules and their reported pKi.
molecule	target-under-test	pKi
CN(C)C(=O)CCc1nc2cnc3[nH]ccc3c2n1C1CCCCC1 [Example 803]	JAK1 (Homo sapiens, UniProt P23458)	7.79
CN(C)C(=O)N[C@H]1CC[C@H](n2cnc3cnc4[nH]ccc4c32)CC1 [Example 603]	JAK1 (Homo sapiens, UniProt P23458)	8.01
C[C@@H](O)c1nc2cnc3[nH]ccc3c2n1C1(C)CCN(S(C)(=O)=O)CC1 [Example 585]	JAK1 (Homo sapiens, UniProt P23458)	8.02

(Q) Name the recorded pKi of the item CC(c1ccccc1)N1CCC(n2cnc3cnc4[nH]ccc4c32)CC1 (stereo not shown) [Example 51] in your answer.
(A) 8.11

---

Biological target: JAK1 (Homo sapiens)
Construct: made in house; host or cells: SF9 insect cells (baculovirus)
Assay: JAK1 inhibition (Table 4)
Assay type: biochemical
Details: read-out: JAK1 Ki
experimental-endpoint: Ki (nM)
Give bare numbers, in nM.

Below: 10 compounds and their reported Ki.
compound	unit-of-measure	reading
CCN1CC[C@@H](n2c(CCNS(=O)(=O)CC)nc3cnc4[nH]ccc4c32)[C@@H](F)C1	nM	4.21
c1cc2c(ncc3ncn([C@H]4[C@@H]5CNC[C@@H]54)c32)[nH]1	nM	229
OC1(C2CC2)CCC(n2cnc3cnc4[nH]ccc4c32)CC1 (stereo not drawn) [Example 995]	nM	6.41
c1cncc(CN2CCCC(n3cnc4cnc5[nH]ccc5c43)CC2)c1 (racemic)	nM	16.5
CN(CC(F)(F)F)C(=O)NC1CCC(n2nnc3cnc4[nH]ccc4c32)C1 (racemic)	nM	9
O=C([C@@H]1COCCN1)N1CCC(n2cnc3cnc4[nH]ccc4c32)CC1	nM	18.5
CCN1CCC(n2c([C@@H](C)O)nc3cnc4[nH]ccc4c32)C(F)(F)C1 (single isomer, unassigned) [Example 880]	nM	1.95
Cc1nc2cnc3[nH]ccc3c2n1[C@@H]1CC[C@@H](NC2COC2)C1	nM	33.9
COC(=O)N[C@@H]1CC[C@@H](n2c(C)nc3cnc4[nH]ccc4c32)C1	nM	1.52
OCCc1nc2cnc3[nH]ccc3c2n1[C@@H]1CCCN(Cc2ccccc2)C1	nM	102

Okay, here is my list. What is Ki for each of these?
1. Cc1nc2cnc3[nH]ccc3c2n1C(C)CCO (racemic)
2. FC(F)(F)c1nc2cnc3[nH]ccc3c2n1C1CCN(Cc2ccccc2)CC1
3. c1cc(N2CCC(n3cnc4cnc5[nH]ccc5c43)CC2)ncn1
4. O=C1OC(CO)CN1[C@H]1CC[C@H](n2cnc3cnc4[nH]ccc4c32)CC1 (stereo partly drawn)
5. O=C(Cc1nc2cnc3[nH]ccc3c2n1C1CCCOC1)N1CCC(CO)CC1 (racemic)
6. CO[C@H]1CC[C@H](n2c(CO)nc3cnc4[nH]ccc4c32)CC1
7. Cc1nc2cnc3[nH]ccc3c2n1[C@H]1CC[C@H](N)CC1

(A)
1. 33.6
2. 10.4
3. 14.9
4. 1.67
5. 17.7
6. 3.8
7. 5.29
